Please find below Ki data on Adenosylhomocysteinase (Homo sapiens) compiled from the literature.
Sequence (P23526 whole entry): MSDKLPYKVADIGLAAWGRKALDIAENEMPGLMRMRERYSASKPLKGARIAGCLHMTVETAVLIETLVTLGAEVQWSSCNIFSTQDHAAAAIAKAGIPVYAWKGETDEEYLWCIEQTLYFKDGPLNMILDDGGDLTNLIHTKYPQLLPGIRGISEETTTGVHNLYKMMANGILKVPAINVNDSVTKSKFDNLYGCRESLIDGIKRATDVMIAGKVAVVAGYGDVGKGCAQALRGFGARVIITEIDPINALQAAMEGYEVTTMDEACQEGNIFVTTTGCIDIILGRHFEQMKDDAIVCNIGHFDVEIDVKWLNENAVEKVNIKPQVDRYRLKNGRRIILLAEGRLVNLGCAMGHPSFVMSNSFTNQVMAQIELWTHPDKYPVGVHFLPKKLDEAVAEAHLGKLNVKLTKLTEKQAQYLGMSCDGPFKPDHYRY
value.type: Ki (µM)

Example results:
• Nc1ncnc2c1ncn2C1O[C@H](C(=O)Nc2ccccc2)[C@@H](O)[C@H]1O (stereo not given in full) = 48.5
• Nc1ncnc2c1ncn2C1O[C@@H](CSSC[C@H]2OC(n3cnc4c(N)ncnc43)[C@H](O)[C@@H]2O)[C@H](O)[C@@H]1O (stereo not given in full) = 96
• Nc1ncnc2c1ncn2C1O[C@H](/C(Br)=C\Br)[C@@H](O)[C@H]1O (stereo not given in full) = 3.6

I. Nc1ncnc2c1ncn2C1O[C@H](C=C(Br)Br)[C@@H](O)[C@H]1O (stereo not given in full)
II. CCCCNC(=O)[C@H]1OC(n2cnc3c(N)ncnc32)[C@H](O)[C@@H]1O (stereo not given in full)
Problem: Among I and II , which shows a numerically higher Ki result? State the label of the item chosen.
Result: II
(II: 19.8 µM, I: 3.1 µM)
